Study system: human GR (Homo sapiens)
Construct: U937 cells contain an endogenous glucocorticoid receptor (GR); endogenous in cells; host or cells: U937 cells stably transfected with the TNF-alpha promoter/beta-lactamase reporter
Method description: Transrepression Assay (GITAR), TNFα-β-lactamase reporter gene in U937 cells
Format: cell-based
Experimental parameters: GITAR Emax minus GRAMMER Emax; Table 1
Experimental readout: GITAR Greater than by GRAMMER % SEP (%)

Compound: CCCCCN(CCO)C(=O)[C@H]1CCC2=Cc3c(cnn3-c3ccc(F)cc3)C[C@@]21C
Unit descriptor: %
Test value: 47.3
//
Compound: COc1ccccc1CCN(CC(O)C(F)(F)F)C(=O)[C@H]1CCC2=Cc3c(cnn3-c3ccc(F)cc3)C[C@@]21C (some centres unmarked)
Unit descriptor: %
Test value: 35.3
//
Compound: Cc1ccc(CCN(CC(O)C(F)(F)F)C(=O)[C@H]2CCC3=Cc4c(cnn4-c4ccc(F)cc4)C[C@@]32C)cc1 (some centres unmarked)
Unit descriptor: %
Test value: 32.8

1: CC1CC(C)CN(C(=O)[C@H]2CCC3=Cc4c(cnn4-c4ccc(F)cc4)C[C@@]32C)C1 (some centres unmarked)
2: CCCN(CC1CCCO1)C(=O)[C@H]1CCC2=Cc3c(cnn3-c3ccc(F)cc3)C[C@@]21C (some centres unmarked) [Compound 62]
[Q] Short answer wanted: higher GITAR Greater than by GRAMMER % SEP, 1 or 2 ? Provide the label of your selected option as the answer.
[A] 1
(1: 40.2%, 2: 23.5%)

* * *

Study system: human GR (Homo sapiens)
Construct: U937 cells contain an endogenous glucocorticoid receptor (GR); endogenous in cells; host or cells: U937 cells stably transfected with the TNF-alpha promoter/beta-lactamase reporter
Sequence (P04150 1-777): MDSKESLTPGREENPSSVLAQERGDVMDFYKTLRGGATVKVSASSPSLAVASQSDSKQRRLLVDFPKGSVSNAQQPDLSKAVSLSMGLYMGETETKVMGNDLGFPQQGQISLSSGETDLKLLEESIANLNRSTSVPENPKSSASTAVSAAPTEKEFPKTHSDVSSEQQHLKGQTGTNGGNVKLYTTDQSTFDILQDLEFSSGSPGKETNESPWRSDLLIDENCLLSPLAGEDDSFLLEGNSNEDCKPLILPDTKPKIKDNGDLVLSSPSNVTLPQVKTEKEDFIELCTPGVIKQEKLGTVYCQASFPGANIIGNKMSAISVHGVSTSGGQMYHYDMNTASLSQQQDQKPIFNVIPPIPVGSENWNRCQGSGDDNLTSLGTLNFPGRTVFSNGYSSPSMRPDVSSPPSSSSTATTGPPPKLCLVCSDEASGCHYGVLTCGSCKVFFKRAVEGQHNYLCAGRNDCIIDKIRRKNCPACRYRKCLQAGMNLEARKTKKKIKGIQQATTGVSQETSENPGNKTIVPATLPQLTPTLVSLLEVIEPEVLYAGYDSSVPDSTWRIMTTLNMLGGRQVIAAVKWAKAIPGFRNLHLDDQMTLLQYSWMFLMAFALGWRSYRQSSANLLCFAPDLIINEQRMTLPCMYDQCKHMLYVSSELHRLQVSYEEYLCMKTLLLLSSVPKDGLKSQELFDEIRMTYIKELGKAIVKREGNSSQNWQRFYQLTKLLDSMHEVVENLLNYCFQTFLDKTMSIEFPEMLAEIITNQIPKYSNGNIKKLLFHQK
Method description: Transrepression Assay (GITAR), TNFα-β-lactamase reporter gene in U937 cells
Assay type: cell-based
Experimental parameters: GITAR Emax minus GRAMMER Emax; Table 1
Experimental readout: GITAR Greater than by GRAMMER % SEP (%)

See these solved cases before continuing.
Compound: COc1ccccc1CCN(CC(O)CC(F)(F)F)C(=O)[C@H]1CCC2=Cc3c(cnn3-c3ccc(F)cc3)C[C@@]21C (stereo partly shown) [Compound 86]
Experimental readout: GITAR Greater than by GRAMMER % SEP
Test value: 35.1
--
Compound: C[C@]12Cc3cnn(-c4ccc(F)cc4)c3C=C1CC[C@@H]2C(=O)N(CCO)Cc1ccccc1 [Compound 36]
Experimental readout: GITAR Greater than by GRAMMER % SEP
Test value: 54.9

P: CC(C)CN(C[C@H](C)O)C(=O)[C@H]1CCC2=Cc3c(cnn3-c3ccc(F)cc3)C[C@@]21C [Compound 66]
Q: C[C@]12Cc3cnn(-c4ccc(F)cc4)c3C=C1CC[C@@H]2C(=O)N(CCO)Cc1cc(F)c(F)c(F)c1 [Compound 28]
R: C[C@]12Cc3cnn(-c4ccc(F)cc4)c3C=C1CC[C@@H]2C(=O)N1CCCC(=O)CC1 [Compound 15]
S: CCN(Cc1ccccc1)C(=O)[C@H]1CCC2=Cc3c(cnn3-c3ccc(F)cc3)C[C@@]21C [Compound 52]
T: C[C@]12Cc3cnn(-c4ccc(F)cc4)c3C=C1CC[C@@H]2C(=O)N(Cc1ccc(Cl)cc1Cl)CC1CC1 [Compound 7]
[Q] Falling order of GITAR Greater than by GRAMMER % SEP, please. # the answer lists labels in the order requested
[A] Q, S, P, R, T
(Q: 45.4%, S: 21.7%, P: 10.5%, R: 7.2%, T: 4.8%)
